target: TCF4-CTNNB1 complex (Homo sapiens, UniProt P15884+P35222); test: Inhibition of beta-Catenin (301 to 670 residues)/TCF4 protein-protein interaction in human HCT-116 cells incubated for 20 hrs by TOPFLASH luciferase reporter assay; format: cell-based
Sequence (P35222 whole entry, the tested form may be a part): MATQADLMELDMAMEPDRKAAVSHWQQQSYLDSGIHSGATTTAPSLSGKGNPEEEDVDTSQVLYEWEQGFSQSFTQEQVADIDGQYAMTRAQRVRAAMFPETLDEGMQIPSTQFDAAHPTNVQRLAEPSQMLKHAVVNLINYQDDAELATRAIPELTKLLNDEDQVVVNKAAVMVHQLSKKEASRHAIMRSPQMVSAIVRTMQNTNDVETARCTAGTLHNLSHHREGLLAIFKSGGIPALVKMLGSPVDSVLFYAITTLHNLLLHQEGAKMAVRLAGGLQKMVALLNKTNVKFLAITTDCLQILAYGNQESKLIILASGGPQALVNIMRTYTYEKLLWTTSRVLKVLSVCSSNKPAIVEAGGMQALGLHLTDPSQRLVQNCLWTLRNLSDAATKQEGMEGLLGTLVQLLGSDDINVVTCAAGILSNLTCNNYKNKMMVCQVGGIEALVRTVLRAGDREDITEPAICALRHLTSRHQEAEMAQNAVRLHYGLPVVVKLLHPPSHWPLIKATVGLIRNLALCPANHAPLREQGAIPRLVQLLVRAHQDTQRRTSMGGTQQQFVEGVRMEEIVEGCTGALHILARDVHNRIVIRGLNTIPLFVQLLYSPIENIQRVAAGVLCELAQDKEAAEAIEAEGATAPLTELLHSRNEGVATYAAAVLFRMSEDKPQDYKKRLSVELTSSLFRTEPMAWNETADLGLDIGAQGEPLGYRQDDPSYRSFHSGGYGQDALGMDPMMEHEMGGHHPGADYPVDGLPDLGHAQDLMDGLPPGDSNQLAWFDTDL
Sequence (P15884 whole entry, the tested form may be a part): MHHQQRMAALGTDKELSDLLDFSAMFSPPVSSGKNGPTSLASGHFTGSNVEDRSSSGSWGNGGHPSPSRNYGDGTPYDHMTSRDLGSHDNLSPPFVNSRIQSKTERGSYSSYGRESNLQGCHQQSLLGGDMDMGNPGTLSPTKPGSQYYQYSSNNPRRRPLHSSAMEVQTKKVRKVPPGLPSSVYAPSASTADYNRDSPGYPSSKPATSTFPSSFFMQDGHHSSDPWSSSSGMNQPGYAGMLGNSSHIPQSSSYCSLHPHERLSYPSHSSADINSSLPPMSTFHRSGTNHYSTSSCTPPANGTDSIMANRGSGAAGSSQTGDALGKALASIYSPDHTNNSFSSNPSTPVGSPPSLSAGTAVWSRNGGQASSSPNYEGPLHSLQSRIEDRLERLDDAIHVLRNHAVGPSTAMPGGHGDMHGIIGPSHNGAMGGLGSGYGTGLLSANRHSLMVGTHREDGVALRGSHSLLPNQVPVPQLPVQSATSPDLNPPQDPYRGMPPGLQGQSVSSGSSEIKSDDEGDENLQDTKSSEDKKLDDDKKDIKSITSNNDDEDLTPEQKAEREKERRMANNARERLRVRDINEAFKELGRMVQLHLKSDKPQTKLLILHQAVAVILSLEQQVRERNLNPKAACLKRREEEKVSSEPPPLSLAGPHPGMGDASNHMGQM
Recorded metric: IC50 (µM)

Structure as smiles | Units label | Reported measurement
COC(=O)c1cccc(NS(=O)(=O)c2ccc(OC)cc2)c1 | µM | 0.53
COC(=O)c1cccc(NS(=O)(=O)c2ccc(C)cc2)c1 | µM | 0.583

----------
assay: Inhibition of human beta-Catenin (138 to 686 residues)/C-terminal fluorescein-labeled human APC (1477 to 1519 residues) protein-protein interaction assessed as inhibition constant incubated for 30 mins by fluorescence polarization assay
pKi: −log10 of the molar value.

Structure as smiles | pKi
COC(=O)[C@H](CCC(=O)O)NC(=O)[C@H](CC(=O)O)NC(=O)[C@H](Cc1ccc2ccccc2c1)NC(=O)Cc1cc2cc(Cl)ccc2[nH]1 | 4.06
